Biological target: human KLK1 (human, UniProt P06870 25-262, limits assumed)
Sequence (P06870 25-262 limits assumed): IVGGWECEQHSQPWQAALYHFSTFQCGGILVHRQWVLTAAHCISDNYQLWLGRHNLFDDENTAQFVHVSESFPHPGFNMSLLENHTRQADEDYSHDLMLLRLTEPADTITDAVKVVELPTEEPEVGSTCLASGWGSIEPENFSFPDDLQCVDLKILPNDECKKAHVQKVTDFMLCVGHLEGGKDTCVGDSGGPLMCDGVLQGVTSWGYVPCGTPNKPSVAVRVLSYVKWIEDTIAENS
Assay: column 7: KLK1 activity assay, 3 nM KLK1
measured.metric: IC50

For the binder 10C8 (antibody, V domains shown) VH: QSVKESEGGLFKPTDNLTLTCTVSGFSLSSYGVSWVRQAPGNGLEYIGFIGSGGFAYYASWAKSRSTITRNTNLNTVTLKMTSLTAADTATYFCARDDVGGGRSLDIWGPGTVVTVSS VL: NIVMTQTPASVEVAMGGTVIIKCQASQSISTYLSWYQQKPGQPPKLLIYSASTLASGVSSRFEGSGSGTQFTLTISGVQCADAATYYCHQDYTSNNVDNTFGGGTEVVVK , what IC50 is on record?
> 100 nM
